This section presents binders with their documented relative KD to VH0/Vκ0 values.
- EXPERIMENTAL TARGET: T1, His-tagged CEACAM1 (human, UniProt P13688 35-428)
- T1 construct: 45 kDa SPR analyte; also called CEACAM1-HIS; CEACAM1 analyte
- T1 sequence: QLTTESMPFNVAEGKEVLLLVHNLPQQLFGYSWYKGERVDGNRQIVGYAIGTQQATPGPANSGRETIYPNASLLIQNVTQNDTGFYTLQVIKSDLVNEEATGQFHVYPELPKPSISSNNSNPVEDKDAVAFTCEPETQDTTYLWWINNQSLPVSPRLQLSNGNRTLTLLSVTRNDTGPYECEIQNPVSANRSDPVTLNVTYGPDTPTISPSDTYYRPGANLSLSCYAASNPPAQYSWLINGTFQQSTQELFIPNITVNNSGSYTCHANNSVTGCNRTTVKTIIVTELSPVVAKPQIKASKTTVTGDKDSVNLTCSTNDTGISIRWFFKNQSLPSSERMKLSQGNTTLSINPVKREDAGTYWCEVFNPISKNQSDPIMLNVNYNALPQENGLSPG
- ASSAY METHOD TEXT: SPR single-cycle, IgG captured
MEASURED PARAMETER: relative KD to VH0/Vκ0

BINDER	MEASURED PARAMETER	VAL
VH2/Vκ10 (antibody, IgG4, V domains shown, IgG4 (S241P), kappa) VH: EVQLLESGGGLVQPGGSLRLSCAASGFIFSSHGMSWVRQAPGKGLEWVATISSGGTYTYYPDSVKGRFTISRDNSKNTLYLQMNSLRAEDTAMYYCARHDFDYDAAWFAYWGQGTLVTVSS VL: EIVLTQSPATLSLSPGERATLSCRANSSVSYMYWYQQKPGQAPRPWIYLTSNRATGIPARFSGSGSGTDFTLTISSLEPEDFATYYCQQWSSNPPTFGQGTKLEIK	relative KD to VH0/Vκ0	3.2
VH1/Vκ1 (antibody, IgG4, V domains shown, IgG4 (S241P), kappa) VH: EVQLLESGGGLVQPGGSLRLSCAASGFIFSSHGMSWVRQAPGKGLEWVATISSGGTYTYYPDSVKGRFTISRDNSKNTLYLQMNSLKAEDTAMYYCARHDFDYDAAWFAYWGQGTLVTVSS VL: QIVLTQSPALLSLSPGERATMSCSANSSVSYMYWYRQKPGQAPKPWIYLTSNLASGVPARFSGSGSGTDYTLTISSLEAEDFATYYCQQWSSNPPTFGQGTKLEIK	relative KD to VH0/Vκ0	2
VH3/Vκ1 (antibody, IgG4, V domains shown, IgG4 (S241P), kappa) VH: EVQLLESGGGLVQPGGSLRLSCAASGFIFSSHGMSWVRQAPGKGLEWVATISSGGTYTYYADSVKGRFTISRDNSKNTLYLQMNSLRAEDTAMYYCARHDFDYDAAWFAYWGQGTLVTVSS VL: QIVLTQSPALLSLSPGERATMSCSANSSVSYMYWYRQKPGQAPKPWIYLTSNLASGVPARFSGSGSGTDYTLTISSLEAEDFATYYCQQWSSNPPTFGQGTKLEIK	relative KD to VH0/Vκ0	3.2

// provenance: patent US20250074980A1
